Test Summary: Selectivity ratio of IC50 for human MCF7 cells to human MDA-MB-231 cells
Format: toxicity
Assignment: determine reported Ratio IC50 for the given compounds.

Qu. Looking for the measured Ratio IC50 of O=C1N(CCn2cc(CO)nn2)c2cc(Br)ccc2C12C(c1ccccc1)C(c1ccccc1)=NN2c1ccccc1 (stereo not drawn) , can you help?
Ans. ~ 1

Qu. Now this one: CCCCOC1(c2cc(=O)c3c(O)cc(OCc4cn(CCCN5C(=O)C6(c7ccc(Br)cc75)C(c5ccccc5)C(c5ccccc5)=NN6c5ccccc5)nn4)cc3o2)C=CC(=O)C=C1 (stereo not drawn)
Ans. > 3.8

Qu. Now this one: O=C1C=CC(OCc2cn(CCOCCOCCN3C(=O)C4(c5ccc(Br)cc53)C(c3ccccc3)C(c3ccccc3)=NN4c3ccccc3)nn2)(c2cc(=O)c3c(O)cc(O)cc3o2)C=C1 (stereo not drawn)
Ans. ~ 2.7
